- systemUnderTest: Human DR5-ECD long form polypeptide (human)
- assaySummary: phage competition ELISA (Comp/DR5 ECD)
Lab note: cut-off is 0.01 µM. Strictly less in IC50 is true. Exactly 0.01 µM or more is false.

Solved cases below.
GEVCLTSCERIR (displayed on phage) [LB936]
true
GEVCLTSCDRLR (phage-displayed) [LB937]
false

Ask: Is IC50 strictly under 0.01 µM for the entry GEVCLTLCSKLT (displayed on phage) [LB956] ?
Reply: false

Ask: Is IC50 strictly under 0.01 µM for the entry CVAMTTCSKLRQCLSA (phage-displayed) [2Hd7-1] ?
Reply: true

Ask: Is IC50 strictly under 0.01 µM for the entry GEVCLTECSKLR (displayed on phage) [LB959] ?
Reply: false

Ask: Is IC50 strictly under 0.01 µM for the entry FEQGEVCMTLCEKLM (phage-displayed) [3H858-1] ?
Reply: false

Ask: Is IC50 strictly under 0.01 µM for the entry EVCMTSCEKLMSA (displayed on phage) [LB846] ?
Reply: false

Ask: Is IC50 strictly under 0.01 µM for the entry VEAGEVCLTLCEKLM (phage-displayed) [3H857-13] ?
Reply: false

Ask: Is IC50 strictly under 0.01 µM for the entry GEVCLTMCSRLR (displayed on phage) [LB935] ?
Reply: true

Ask: Is IC50 strictly under 0.01 µM for the entry GEVCLTECSRLT (phage-displayed) [LB960] ?
Reply: false

Ask: Is IC50 strictly under 0.01 µM for the entry CVAMTSCEKLRSCLLL (displayed on phage) [2Hd7-2] ?
Reply: false

Ask: Is IC50 strictly under 0.01 µM for the entry GEVCLTLCSKLR (displayed on phage) [LB952] ?
Reply: false

Ask: Is IC50 strictly under 0.01 µM for the entry ESRGEVCLTSCERLR (phage-displayed) [871-31-S3] ?
Reply: false

Ask: Is IC50 strictly under 0.01 µM for the entry EVCMTSCEKLMSALSL (phage-displayed) [2H9-13] ?
Reply: false
